assay info: AUC following oral dose
Format: ADME, organism-based
run parameters: rat, plasma
metric name: AUC (ng·h/mL)

- compound: "CC(CO)/N=C(\\N)c1c(O)nsc1Nc1ccc(Oc2cccc(Cl)c2F)cc1 (configuration not stated)"
  AUC / ng·h/mL: 12600
- compound: "CC(CO)NC(=N)c1c(O)nsc1Nc1ccc(Oc2cc(Cl)cc(Cl)c2)cc1 (configuration not stated)"
  AUC / ng·h/mL: 11700
- compound: "CC(CO)/N=C(\\N)c1c(O)nsc1Nc1ccc(Oc2ccccc2)cc1 (configuration not stated)"
  AUC / ng·h/mL: 1140

P. CN1CCN(N=C(N)c2c(Nc3ccc(Oc4cc(Cl)ccc4Cl)cc3)s[nH]c2=O)CC1
Q. CC(CO)NC(=N)c1c(O)nsc1Nc1ccc(Oc2cc(F)cc(C(F)(F)F)c2)cc1 (configuration not stated)
R. CC(CO)/N=C(\N)c1c(O)nsc1Nc1ccc(Oc2cc(Cl)ccc2Cl)c(F)c1 (configuration not stated)
S. CC(CO)N=C(N)c1c(Nc2ccc(Oc3cccc(C(F)(F)F)c3Cl)c(F)c2)s[nH]c1=O (configuration not stated)
Query block: Output the entries ranked by AUC from maximum down to minimum. Return the labels ranked in the requested order, please.
Result block: R, Q, S, P

1. NC(=NCC(O)CO)c1c(Nc2ccc(Oc3cc(Cl)ccc3Cl)cc2)s[nH]c1=O (configuration not stated)
2. NC(=NC(CO)CO)c1c(Nc2ccc(Oc3cc(Cl)ccc3Cl)cc2)s[nH]c1=O
Query block: Sorting ascending by AUC, which comes first: 1 or 2 ? Bench note: the answer is the label of the chosen record.
Result block: 2

1. CC(CO)N=C(N)c1c(Nc2ccc(Oc3cc(C(F)(F)F)ccc3Cl)cc2)s[nH]c1=O (configuration not stated)
2. CC(CO)NC(=N)c1c(O)nsc1Nc1ccc(Nc2ccccc2)cc1 (configuration not stated)
Query block: Sorting ascending by AUC, which comes first: 1 or 2 ? Bench note: the answer is the label of the chosen record.
Result block: 2
(2: 1240 ng·h/mL, 1: 21900 ng·h/mL)

====

system tested: Receptor-type tyrosine-protein kinase FLT3 (Homo sapiens, UniProt P36888)
Sequence (P36888 whole entry): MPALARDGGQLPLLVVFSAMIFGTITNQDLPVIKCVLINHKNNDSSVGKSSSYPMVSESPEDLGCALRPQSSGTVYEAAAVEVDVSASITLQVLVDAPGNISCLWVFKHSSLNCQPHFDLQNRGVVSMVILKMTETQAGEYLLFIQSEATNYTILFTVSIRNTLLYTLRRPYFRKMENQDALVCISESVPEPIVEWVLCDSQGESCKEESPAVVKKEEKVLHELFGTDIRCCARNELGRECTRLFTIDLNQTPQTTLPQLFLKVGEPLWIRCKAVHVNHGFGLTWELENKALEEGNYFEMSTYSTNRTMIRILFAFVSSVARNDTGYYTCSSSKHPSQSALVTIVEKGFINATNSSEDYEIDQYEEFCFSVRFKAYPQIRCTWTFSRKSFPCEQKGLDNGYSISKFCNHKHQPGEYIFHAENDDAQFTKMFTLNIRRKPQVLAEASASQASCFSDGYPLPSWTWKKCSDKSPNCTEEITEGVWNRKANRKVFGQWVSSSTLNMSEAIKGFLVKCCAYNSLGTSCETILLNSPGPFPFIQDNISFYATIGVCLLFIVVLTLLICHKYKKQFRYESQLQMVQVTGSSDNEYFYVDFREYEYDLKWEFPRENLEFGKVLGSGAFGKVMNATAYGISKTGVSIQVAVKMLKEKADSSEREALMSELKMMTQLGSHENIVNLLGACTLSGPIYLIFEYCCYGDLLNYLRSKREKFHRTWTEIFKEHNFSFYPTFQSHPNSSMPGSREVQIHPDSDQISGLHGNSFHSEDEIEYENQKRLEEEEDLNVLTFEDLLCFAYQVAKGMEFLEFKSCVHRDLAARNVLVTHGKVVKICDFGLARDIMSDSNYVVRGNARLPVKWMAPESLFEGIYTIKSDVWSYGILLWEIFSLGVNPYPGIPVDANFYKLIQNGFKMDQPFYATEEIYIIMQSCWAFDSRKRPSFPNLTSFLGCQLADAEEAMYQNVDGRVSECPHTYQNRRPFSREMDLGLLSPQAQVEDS
pIC50: −log10 of the molar value.
metric name: pIC50

A. CC(CO)NC(=N)c1c(O)nsc1Nc1ccc(Nc2ccccc2)cc1 (configuration not stated)
B. CC(CO)/N=C(\N)c1c(O)nsc1Nc1ccc(Oc2ccccc2)cc1 (configuration not stated)
Query block: Sorting ascending by pIC50, which comes first: A or B ? Bench note: the answer is the label of the chosen record.
Result block: B
(B: 6.10, A: 6.35)

====

system tested: Aurora kinase A (Homo sapiens, UniProt O14965)
Sequence (O14965 whole entry): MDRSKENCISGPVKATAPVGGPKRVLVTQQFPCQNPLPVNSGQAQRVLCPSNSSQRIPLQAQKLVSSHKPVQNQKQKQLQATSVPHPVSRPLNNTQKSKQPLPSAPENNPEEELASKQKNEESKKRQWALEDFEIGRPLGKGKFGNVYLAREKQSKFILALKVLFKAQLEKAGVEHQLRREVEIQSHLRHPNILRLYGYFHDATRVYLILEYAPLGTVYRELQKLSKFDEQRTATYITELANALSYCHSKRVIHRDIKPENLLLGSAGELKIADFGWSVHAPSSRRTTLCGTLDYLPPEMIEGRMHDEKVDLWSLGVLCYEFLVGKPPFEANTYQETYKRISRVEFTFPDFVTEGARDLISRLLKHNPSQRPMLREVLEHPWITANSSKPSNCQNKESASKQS
metric name: IC50 (nM)
Report as a plain number; the unit nM is understood.

Query block: Report IC50 on Aurora kinase A (Homo sapiens, UniProt O14965) for this entry: CC(CO)/N=C(\N)c1c(O)nsc1Nc1ccc(Oc2ccccc2)cc1 (stereo unspecified)
Result block: 260

====

system tested: Dual specificity mitogen-activated protein kinase kinase 1 (Homo sapiens)
Sequence (Q02750 whole entry): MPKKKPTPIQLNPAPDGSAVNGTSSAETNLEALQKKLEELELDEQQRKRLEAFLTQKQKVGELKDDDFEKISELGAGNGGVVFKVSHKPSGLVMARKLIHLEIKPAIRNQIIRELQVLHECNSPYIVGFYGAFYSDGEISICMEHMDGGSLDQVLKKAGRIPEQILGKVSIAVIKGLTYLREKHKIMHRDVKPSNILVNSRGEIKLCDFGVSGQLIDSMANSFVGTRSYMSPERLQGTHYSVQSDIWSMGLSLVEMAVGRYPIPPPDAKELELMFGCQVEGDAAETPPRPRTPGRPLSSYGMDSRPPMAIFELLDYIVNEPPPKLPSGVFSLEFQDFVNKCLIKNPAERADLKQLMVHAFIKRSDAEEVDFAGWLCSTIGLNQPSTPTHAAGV
assay info: Inhibition of MEK-1
pIC50: −log10 of the molar value.
metric name: pIC50

A. CC(CO)/N=C(\N)c1c(O)nsc1Nc1ccc(Oc2ccccc2)cc1 (configuration not stated)
B. CC(CO)NC(=N)c1c(O)nsc1Nc1ccc(Nc2ccccc2)cc1 (configuration not stated)
Query block: Sorting ascending by pIC50, which comes first: A or B ? Bench note: the answer is the label of the chosen record.
Result block: B

====

system tested: Ribosomal protein S6 kinase (P70S6K) (Homo sapiens, UniProt P23443+Q9UBS0)
Sequence (Q9UBS0 whole entry): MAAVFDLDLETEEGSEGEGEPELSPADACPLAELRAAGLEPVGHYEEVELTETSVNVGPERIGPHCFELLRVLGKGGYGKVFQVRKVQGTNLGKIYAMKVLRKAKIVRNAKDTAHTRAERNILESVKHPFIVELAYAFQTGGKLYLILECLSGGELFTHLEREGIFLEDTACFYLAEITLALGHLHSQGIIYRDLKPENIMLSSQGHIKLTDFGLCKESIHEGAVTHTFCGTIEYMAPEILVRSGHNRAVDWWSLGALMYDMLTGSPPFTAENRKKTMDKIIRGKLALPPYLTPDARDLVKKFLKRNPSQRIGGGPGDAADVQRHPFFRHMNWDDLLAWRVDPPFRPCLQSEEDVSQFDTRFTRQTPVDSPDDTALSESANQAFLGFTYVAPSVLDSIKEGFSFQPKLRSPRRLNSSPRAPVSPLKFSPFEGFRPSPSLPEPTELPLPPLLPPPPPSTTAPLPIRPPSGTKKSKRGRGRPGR
Sequence (P23443 whole entry): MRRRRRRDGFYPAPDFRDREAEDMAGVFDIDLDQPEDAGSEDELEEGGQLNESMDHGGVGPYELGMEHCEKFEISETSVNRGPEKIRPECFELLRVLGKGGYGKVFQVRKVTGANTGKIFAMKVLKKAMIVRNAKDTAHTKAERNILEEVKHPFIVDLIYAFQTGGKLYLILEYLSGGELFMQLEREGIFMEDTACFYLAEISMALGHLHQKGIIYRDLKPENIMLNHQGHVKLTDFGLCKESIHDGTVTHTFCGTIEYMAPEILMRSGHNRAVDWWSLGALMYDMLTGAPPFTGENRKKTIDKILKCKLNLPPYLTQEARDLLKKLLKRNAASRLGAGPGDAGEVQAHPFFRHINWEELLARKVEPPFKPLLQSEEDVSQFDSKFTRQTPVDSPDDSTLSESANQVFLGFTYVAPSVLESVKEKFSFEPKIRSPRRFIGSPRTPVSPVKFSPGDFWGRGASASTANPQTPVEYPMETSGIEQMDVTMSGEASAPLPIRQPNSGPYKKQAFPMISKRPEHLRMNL
assay info: Inhibition of p70 S6 kinase
Assay type: protein-complex assay
pIC50: −log10 of the molar value.
metric name: pIC50

1. CC(CO)/N=C(\N)c1c(O)nsc1Nc1ccc(Oc2ccccc2)cc1 (configuration not stated)
2. CC(CO)NC(=N)c1c(O)nsc1Nc1ccc(Nc2ccccc2)cc1 (configuration not stated)
Query block: Sorting ascending by pIC50, which comes first: 1 or 2 ? Bench note: the answer is the label of the chosen record.
Result block: 1

====

Sequence of the target: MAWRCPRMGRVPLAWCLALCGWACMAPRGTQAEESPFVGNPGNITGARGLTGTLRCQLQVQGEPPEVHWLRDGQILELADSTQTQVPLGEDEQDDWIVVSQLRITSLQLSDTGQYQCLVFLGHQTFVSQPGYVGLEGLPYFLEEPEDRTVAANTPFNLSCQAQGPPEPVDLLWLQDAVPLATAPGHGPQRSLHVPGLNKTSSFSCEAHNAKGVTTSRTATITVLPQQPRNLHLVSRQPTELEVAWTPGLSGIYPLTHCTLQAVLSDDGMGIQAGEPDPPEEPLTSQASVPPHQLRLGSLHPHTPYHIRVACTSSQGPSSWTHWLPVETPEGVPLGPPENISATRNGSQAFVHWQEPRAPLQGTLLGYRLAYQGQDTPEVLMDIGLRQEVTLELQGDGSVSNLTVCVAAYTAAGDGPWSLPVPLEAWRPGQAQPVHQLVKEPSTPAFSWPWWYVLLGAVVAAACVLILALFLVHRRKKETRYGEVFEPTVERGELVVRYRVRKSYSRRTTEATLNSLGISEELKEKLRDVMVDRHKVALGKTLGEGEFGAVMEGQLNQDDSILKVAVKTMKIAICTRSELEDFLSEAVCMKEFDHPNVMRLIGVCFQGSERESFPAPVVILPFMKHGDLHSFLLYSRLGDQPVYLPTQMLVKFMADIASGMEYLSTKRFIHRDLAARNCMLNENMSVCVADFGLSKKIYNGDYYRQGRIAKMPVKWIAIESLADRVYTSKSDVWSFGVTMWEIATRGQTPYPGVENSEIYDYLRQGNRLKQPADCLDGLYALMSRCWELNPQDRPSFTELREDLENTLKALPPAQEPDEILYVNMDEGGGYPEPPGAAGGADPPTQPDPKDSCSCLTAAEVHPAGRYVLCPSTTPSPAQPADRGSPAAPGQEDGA
metric name: IC50 (nM)
Report as a plain number; the unit nM is understood.

Query block: Give the reported IC50 for this molecule. CC(CO)/N=C(\N)c1c(O)nsc1Nc1ccc(Oc2ccccc2)cc1 (stereo unspecified)
Result block: 455

====

assay info: AUC following oral dose
Format: ADME, organism-based
run parameters: rat, plasma
metric name: AUC (µg·h/mL)

Please review the following examples before continuing.
- molecule: "CC(CO)N=C(N)c1c(Nc2ccc(Oc3cccc(C(F)(F)F)c3F)cc2)s[nH]c1=O (stereo not given)"
  AUC, µg·h/mL: 13
- molecule: "CC(CO)N=C(N)c1c(Nc2ccc(S(=O)(=O)c3ccccc3)cc2)s[nH]c1=O (stereo not given)"
  AUC, µg·h/mL: 4.25
- molecule: "CC(CO)NC(=N)c1c(O)nsc1Nc1ccc(Oc2cccc(C(F)(F)F)c2)cc1 (stereo not given)"
  AUC, µg·h/mL: 28.7
- molecule: "N=C(NCC1CCCO1)c1c(O)nsc1Nc1ccc(Oc2cc(Cl)ccc2Cl)cc1 (stereo not given)"
  AUC, µg·h/mL: 0.425
- molecule: "N/C(=N\\CCN1CCNC(=O)C1)c1c(O)nsc1Nc1ccc(Oc2cc(Cl)ccc2Cl)cc1"
  AUC, µg·h/mL: 0.087

A. N=C(NCCN1CCOCC1)c1c(O)nsc1Nc1ccc(Oc2cc(Cl)ccc2Cl)cc1
B. CC(CO)/N=C(\N)c1c(O)nsc1Nc1ccc(C(=O)c2ccccc2)cc1 (stereo not given)
Query block: Consider A and B . Which of these has its AUC at a higher number? Bench note: the answer is the label of the chosen record.
Result block: A

P. CCC(CO)/N=C(\N)c1c(O)nsc1Nc1ccc(Oc2cc(Cl)ccc2Cl)cc1 (stereo not given)
Q. CC(CO)N=C(N)c1c(Nc2ccc(Oc3cc(Cl)ccc3Cl)cc2)s[nH]c1=O (stereo not given)
R. CC(CO)N=C(N)c1c(Nc2ccc(Oc3ccc(F)cc3Cl)c(Cl)c2)s[nH]c1=O (stereo not given)
Query block: Output the entries ranked by AUC from maximum down to minimum. Return the labels ranked in the requested order, please.
Result block: Q, P, R
(Q: 47.4 µg·h/mL, P: 14.6 µg·h/mL, R: 5.69 µg·h/mL)

I. CC(O)C/N=C(\N)c1c(O)nsc1Nc1ccc(Oc2cc(Cl)ccc2Cl)cc1 (stereo not given)
II. CC(CO)NC(=N)c1c(O)nsc1Nc1ccc(Oc2cccc(Cl)c2Cl)c(Cl)c1 (stereo not given)
III. CC(CO)/N=C(\N)c1c(O)nsc1Nc1ccc(Oc2ccc(F)cc2F)cc1 (stereo not given)
IV. CC(CO)/N=C(\N)c1c(O)nsc1Nc1ccc(Oc2ccc(F)cc2Cl)cc1 (stereo not given)
V. CN1CCN(CCC/N=C(\N)c2c(O)nsc2Nc2ccc(Oc3cc(Cl)ccc3Cl)cc2)CC1
Query block: Output the entries ranked by AUC from maximum down to minimum. Return the labels ranked in the requested order, please.
Result block: I, III, IV, II, V
(I: 23.9 µg·h/mL, III: 16.5 µg·h/mL, IV: 6.26 µg·h/mL, II: 4.28 µg·h/mL, V: 2.42 µg·h/mL)

1. CC(CO)N=C(N)c1c(Nc2ccc(Oc3cc(C(F)(F)F)ccc3F)cc2)s[nH]c1=O (stereo not given)
2. CC(CO)/N=C(\N)c1c(O)nsc1Nc1ccc(Oc2cc(F)cc(F)c2)cc1 (stereo not given)
Query block: Sorting ascending by AUC, which comes first: 1 or 2 ? Bench note: the answer is the label of the chosen record.
Result block: 2
(2: 5.13 µg·h/mL, 1: 31.3 µg·h/mL)

P. CN1CCN(CC/N=C(\N)c2c(O)nsc2Nc2ccc(Oc3cc(Cl)ccc3Cl)cc2)CC1
Q. CC(CO)NC(=N)c1c(O)nsc1Nc1ccc(Oc2cc(F)ccc2Cl)cc1 (stereo not given)
R. CC(CO)/N=C(\N)c1c(O)nsc1Nc1ccc(Oc2cccc(Cl)c2Cl)cc1 (stereo not given)
Query block: Output the entries ranked by AUC from maximum down to minimum. Return the labels ranked in the requested order, please.
Result block: R, Q, P
(R: 5.26 µg·h/mL, Q: 0.9 µg·h/mL, P: 0.262 µg·h/mL)

Data origin, for the record: ChEMBL document CHEMBL1137237
